test: yeast display, Sf9 membrane polyspecificity reagent, FACS + sequencing; frameworks hold sequencing errors
QUANTITY MEASURED: polyreactivity (PSR sort gate)

RESIDUE CODES: QVQLVESGGGLVQAGGSLRLSCAASGITFLDNVMGWYRQAPGKERELVADINSIGTSTSYADSVKGRFTISRDNAKNTVYLQMNSLKPEDTAVYYCAADTGLEDYDYWGQGTQVTVSS
RESULT: low polyreactivity
//
RESIDUE CODES: QVQLVESGGVLVQDGGSLRLSCAASGRIFGHYAMGWYRQAPGKERELVAAISWSGGSTYYADSVKARFTISRDNAKNTVYLQMKSLKPEDTAVYDCNTGRVRYQGVRYDYWGQGTQVTVSS
RESULT: high polyreactivity
//
RESIDUE CODES: QVQLVESGGGLVQAGGSLRLSCAASGFTFPYYAMAWYRQAPGKEREVVAAISFSGGRTYYADSVMGRFTISRDNAKYTVYLQMNSLKPEDTAVYYCASYDYRNTGGGGYYYWGQGTQVTVSS
RESULT: high polyreactivity
//
RESIDUE CODES: QVQHVESGGGLVQAGGSLRLSCPASGSTLYGYAMGWYRQEPGKESELVAAINTGASTNYADSVKGRFTISRDNAKNTVYLQMNSLKPEDTAVYYCAASYSLTFWDKDDYWGQGTQVTVSS
RESULT: low polyreactivity
//
RESIDUE CODES: QVQLVESGGGLVQAGGSLRLSCAASGSTFLGYAMGWYRQAPGKERELVAAITYSGGGTYYADSVKGRFTISRDNAKNTVYLQMNSLKPEDTAVYYCNADVSWSYSVYREYGMDYWGQGTQVTVSS
RESULT: low polyreactivity
//
RESIDUE CODES: QVQLVESGGGLVQAGGSLRLSCAASGSTFASNMGWYRQAPGKERELVAGIRSSGSTYYADSVKGRFTISRDNAKNTVYLQMNSLKPEDTAVYSCNKGDYRTYPYDYWGQGTQVTVSS
RESULT: low polyreactivity
//
RESIDUE CODES: QVQLVESGGGLVQAGGSLRLSCAASGLTFIKYTMGWSRQAPGKERELVATIRASTGSTYYADSVKGRFTISRDNAKNTVYLQMNSLKPEDTAVYYCATRSYPPYYGLYGGRAYNYWGQGTQVTVSS
RESULT: high polyreactivity
//
RESIDUE CODES: QVQLVESGGGLVQAGGSLRLSCAASGSTFVSYDMGWYRQAPGKERELVATIRRGGSTYYADSVKGRFTISRDNAKNTVYLQMNSLKPEDTAVYYCAAQQYAKYGWYAYDYWGQGTQVTVSS
RESULT: low polyreactivity
//
RESIDUE CODES: QVKLVESGRGLVQAGGSLRLSCAASGRIFTNNAMGRYRPATGKERELVAAINVSGGRTYYADSVKGRFTISRENAKNTVYLQMISLKPDDTAVYYCNKVKETYMDYWGQGTQVTVSS
RESULT: high polyreactivity
//
RESIDUE CODES: QVQLVESGGGLVQAGGSLRLSCAASGSIFTRYAMGWYRQAPGKERELVAAITKSGSRTYYADSVKGRSTISRDNAKNTVYLQMNSLKPEDTAVYYCATLQGDSSSQYDYWGQGTQVTVSS
RESULT: high polyreactivity
//
RESIDUE CODES: QDQLVESGGGLVQAGGSLRLSCAASGFTFYLYTMGSYRQAPGKERELVATITSDGGTNYADSVKGRFTISRDNAKNTVYLQMNSLKPEDTAVYFCNAASRRGSRKQAKYDYWGQGTQVTVSS
RESULT: low polyreactivity

These data points were gathered from the nanobody polyreactivity screen of Harvey et al. (2022).
